system: MDA-MB-468; assay: phospho-S6 immunofluorescence (DAPI-normalised), per-plate z-score; higher = higher phospho-S6 signal (less pathway suppression); conditions: co-treatment: GDC0941 450 nM; 24 h
Counter-ions that a name gives are not always drawn.
Would you mind telling me the reported phospho-S6 immunofluorescence (z-score) of each entry?
Answers are plain numbers.

Previously resolved entries follow.
| compound | assay system | phospho-S6 immunofluorescence (z-score) |
| --- | --- | --- |
| Cc1c(CC(=O)O)c2cccnc2n1Cc1ccc(S(C)(=O)=O)cc1C(F)(F)F [Fevipiprant] (compound 10 µM) | MDA-MB-468 | -2.62 |
| CN(C)CCCN1c2ccccc2Sc2ccc(Cl)cc21 [Chlorpromazine (hydrochloride)] (compound 10 µM) | MDA-MB-468 | 0.58 |

For each of the compounds below, note its phospho-S6 immunofluorescence (z-score).
1. Cn1cc(C(=O)[C@@H]2CCc3[nH]cnc3C2)c2ccccc21 [Ramosetron (Hydrochloride)] (compound 10 µM)
2. Cc1cc(NC(=O)Nc2ccc(N(C)C)cc2)c2cc(F)cc(F)c2n1 (compound 10 µM)

Solution:
[-1.27, -2.07]

Problem: Entry under review: CCN1CCCC1CNC(=O)c1cc(S(N)(=O)=O)ccc1OC (stereo not given) [Sulpiride] (compound 10 µM) . Reported phospho-S6 immunofluorescence (z-score)?
Solution: -0.13

* * *

Would you mind telling me the reported phospho-S6 immunofluorescence (z-score) of each entry?
test system: MDA-MB-468; assay: phospho-S6 immunofluorescence (DAPI-normalised), per-plate z-score; higher = higher phospho-S6 signal (less pathway suppression); details: co-treatment: vehicle; 24 h
Structures can show the parent of a compound that is named as a salt.
One number for each entry.

| molecule | phospho-S6 immunofluorescence (z-score) |
| --- | --- |
| CN(C)CCC(c1ccc(Br)cc1)c1ccccn1 (configuration not stated) [Brompheniramine (maleate)] (compound 10 µM) | 0.3 |

For each of the molecules below, note its phospho-S6 immunofluorescence (z-score).
1. CC[C@@H]1C(=O)OC[C@@H]1Cc1cncn1C [Pilocarpine (Hydrochloride)] (compound 10 µM)
2. COc1cc2nc(N(C)CCCNC(=O)C3CCCO3)nc(N)c2cc1OC (configuration not stated) [Alfuzosin] (compound 10 µM)
3. COc1ccc2cccc(CCNC(C)=O)c2c1 [Agomelatine] (compound 10 µM)
4. Cc1cc(NC(=O)NCCN2CCC(O)(Cc3ccccc3)CC2)c2ccccc2n1 [Palosuran] (compound 10 µM)
5. CN(C)C(=O)C(CCN1CCC(O)(c2ccc(Cl)cc2)CC1)(c1ccccc1)c1ccccc1 [Loperamide (hydrochloride)] (compound 10 µM)
6. N[C@@H](COP(=O)(O)O)C(=O)O [O-Phospho-L-serine] (compound 10 µM)

Solution:
-0.68
-0.19
0.35
-0.2
-0.37
-0.66

* * *

Would you mind telling me the reported phospho-S6 immunofluorescence (z-score) of each entry?
tested on: MDA-MB-468; test: phospho-S6 immunofluorescence (DAPI-normalised), per-plate z-score; higher = higher phospho-S6 signal (less pathway suppression); settings: co-treatment: vehicle; 24 h
Where a name gives a salt, the structure may show the parent alone.
Give bare numbers.

| compound | phospho-S6 immunofluorescence (z-score) |
| --- | --- |
| CC[N+](CC)(CC)CCOc1cccc(OCC[N+](CC)(CC)CC)c1OCC[N+](CC)(CC)CC [Gallamine Triethiodide] (compound 10 µM) | 0.47 |
| CN1CCC(=C2c3ccccc3C=Cc3ccccc32)CC1 [Cyproheptadine (hydrochloride sesquihydrate)] (compound 10 µM) | -0.87 |

Could you now consider this next compound?
Problem: Entry under review: CCCCC1=NC2(CCCC2)C(=O)N1Cc1ccc(-c2ccccc2-c2nnn[nH]2)cc1 [Irbesartan] (compound 10 µM) . Reported phospho-S6 immunofluorescence (z-score)?
Solution: 0.09

* * *

tested on: MDA-MB-468; assay: phospho-S6 immunofluorescence (DAPI-normalised), per-plate z-score; higher = higher phospho-S6 signal (less pathway suppression); conditions: co-treatment: GDC0941 450 nM; 24 h
observable: phospho-S6 immunofluorescence (z-score)
Numbers only.

For each of the molecules below, note its phospho-S6 immunofluorescence (z-score).
1. OC[C@@H](O)CN1CCN(c2ccccc2)CC1 [Levodropropizine] (compound 10 µM)
2. CC(O)Cn1cnc2c1c(=O)n(C)c(=O)n2C (stereo not drawn) [Proxyphylline] (compound 10 µM)
3. CCCCN1CCC(CNC(=O)c2c3n(c4ccccc24)CCCO3)CC1 [Piboserod] (compound 10 µM)
4. COc1ccc(S(=O)(=O)Nc2c(C)cc(C)cc2C)cc1 (compound 10 µM)

Solution:
1. -0.63
2. 0.64
3. -0.39
4. 0.04

* * *

test system: MDA-MB-468; assay: phospho-S6 immunofluorescence (DAPI-normalised), per-plate z-score; higher = higher phospho-S6 signal (less pathway suppression); conditions: co-treatment: vehicle; 24 h
Would you mind telling me the reported phospho-S6 immunofluorescence (z-score) of each entry?

Previously resolved entries follow.
| compound | phospho-S6 immunofluorescence (z-score) |
| --- | --- |
| CC(C)[C@H](NC(=O)[C@H](CCCN=C(N)N)NC(=O)[C@@H](N)CC(=O)O)C(=O)N[C@@H](Cc1ccc(O)cc1)C(=O)N[C@H](C(=O)N[C@@H](Cc1cnc[nH]1)C(=O)N1CCC[C@H]1C(=O)N[C@@H](Cc1ccccc1)C(=O)O)C(C)C [Angiotensin II 5-valine] (compound 10 µM) | 0.07 |
| CCc1cnc(N2CCC(c3nc(COc4ccc(-n5cnnn5)cc4)cs3)CC2)nc1 (compound 10 µM) | -6.72 |

Could you now consider this next compound?
Problem: Entry under review: N#Cc1ccc2[nH]cc(CCCCN3CCN(c4ccc5oc(C(N)=O)cc5c4)CC3)c2c1 [Vilazodone] (compound 10 µM) . Reported phospho-S6 immunofluorescence (z-score)?
Solution: 1.24

* * *

Would you mind telling me the reported phospho-S6 immunofluorescence (z-score) of each entry?
tested on: MDA-MB-468; test: phospho-S6 immunofluorescence (DAPI-normalised), per-plate z-score; higher = higher phospho-S6 signal (less pathway suppression); settings: co-treatment: vehicle; 24 h
Counter-ions that a name gives are not always drawn.
One number for each entry.

Previously resolved entries follow.
| compound | observable | data value |
| --- | --- | --- |
| C=CCN1CCCC1CNC(=O)c1cc(S(N)(=O)=O)cc(OC)c1OC (configuration not stated) [Veralipride] (compound 10 µM) | phospho-S6 immunofluorescence (z-score) | 0.08 |
| CCOC(=O)N1CCC(NCCNC(=O)c2ccccc2C)CC1 (compound 10 µM) | phospho-S6 immunofluorescence (z-score) | 1.13 |
| O=C(N[C@H]1CCN(C(=O)c2cc(C(F)(F)F)cc(C(F)(F)F)c2)[C@H](Cc2ccc(Cl)cc2)C1)c1ccnc2ccccc12 (compound 10 µM) | phospho-S6 immunofluorescence (z-score) | -1.44 |
| CN1CCC(OC(c2ccccc2)c2ccccc2)CC1 [Diphenylpyraline (hydrochloride)] (compound 10 µM) | phospho-S6 immunofluorescence (z-score) | -0.04 |
| CC(C)[C@H](N=C(NS(=O)(=O)c1ccc(Cl)cc1)N1C[C@H](c2ccccc2)C(c2ccc(Cl)cc2)=N1)C(N)=O (compound 10 µM) | phospho-S6 immunofluorescence (z-score) | 0.1 |
| CN(C)CCN1C(=O)c2cccc3cc(NC(N)=O)cc(c23)C1=O (compound 10 µM) | phospho-S6 immunofluorescence (z-score) | 0.12 |

Problem: Param readout = phospho-S6 immunofluorescence (z-score); param system = MDA-MB-468; param query = C[C@H](Nc1cc(NS(=O)(=O)N2CCC2)nc(SCc2cccc(F)c2F)n1)[C@@H](O)CO (compound 10 µM) ; response: value
Solution: -0.77

* * *

tested on: MDA-MB-468; assay: phospho-S6 immunofluorescence (DAPI-normalised), per-plate z-score; higher = higher phospho-S6 signal (less pathway suppression); settings: co-treatment: vehicle; 24 h
Structures can show the parent of a compound that is named as a salt.
observable: phospho-S6 immunofluorescence (z-score)

Previously resolved entries follow.
| compound | phospho-S6 immunofluorescence (z-score) |
| --- | --- |
| CN(C)CC1CCOC1(c1ccccc1)c1ccccc1 (stereo not drawn) [AVex-73 hydrochloride] (compound 10 µM) | 0.2 |
| OCCOCCN1CCN(C2=Nc3ccccc3Sc3ccccc32)CC1 [Quetiapine (fumarate)] (compound 10 µM) | -0.03 |
| O=C(NC(Cc1cc(=O)[nH]c2ccccc12)C(=O)O)c1ccc(Cl)cc1 (stereo not drawn) [Rebamipide] (compound 10 µM) | 0.16 |
| CNC(=C[N+](=O)[O-])NCCSCc1ccc(CN(C)C)o1 [Ranitidine (hydrochloride)] (compound 10 µM) | 0.29 |
| CC(C)NCC(O)COc1cccc2ccccc12 (stereo not drawn) [Propranolol (hydrochloride)] (compound 10 µM) | 0.21 |

For each of the compounds below, note its phospho-S6 immunofluorescence (z-score).
1. NC(=O)CC[C@H](N)C(=O)O [L-Glutamine] (compound 10 µM)
2. Cc1c(Cc2ccc3ccccc3n2)c2cc(F)ccc2n1CC(=O)O (compound 10 µM)
3. CCN1CCCC1CNC(=O)c1cc(S(=O)(=O)CC)c(N)cc1OC (stereo not drawn) [Amisulpride] (compound 10 µM)

Solution:
1: -0.12; 2: 0.58; 3: 0.83

Reference source: the supplement of paper PMC7411640
